# assayed target: recombinant HA derived from Yamagata lineage strain B/FLA/06 (B/Florida/4/2006) (influenza B virus B/Florida/4/2006)
# assay protocol: ELISA on coated recombinant HA, unpurified IgG
Threshold-based label: EC50 under 0.02 µg/mL gives Met, EC50 not under 0.02 µg/mL gives Not met.

Would you please look over these solved cases?
- FBC-39 FTL (antibody, V domains shown) VH: EVQLVESGGGLVKPGGSLRLSCAASGFTFLNAWMSWVRQAPGKGLEWVGRIKSNTDGGTTDYAAPVKGRFTISRDDSKNTLYLQMSSLKTEDTAVYYCTTDGPYSDDFRSGYAARYRYFGMDVWGQGTTVTVSS VL: DIQMTQSPSSVSASVGDRVTITCRASQDISTWLAWYQQKPGKAPKLLIYAASSLQSGVPSRFSGSGSGTDFTLTISSLQPEDFATYYCQQANSFPPTFGQGTKLEIK: Met
- FBC-39 (antibody, V domains shown) VH: EVQLVVSGGGLVKPGGSLRLSCAASGLSFLNAWMSWVRQAPGKGLEWVGRIKSNTDGGTTDYAAPVKGRFSISRDDSKNMLFLHMSSLRTEDTAVYYCATDGPYSDDFRSGYAARYRYFGMDVWGQGTTVTVSS VL: DIQMTQSPSSVSASVGDRVTITCRASQDISTWLAWYQQKPGKAPKLLIYAASSLQSGVPSRFSGSGSGTDFTLTISSLQPEDFATYFCQQANSFPPTFGQGTKLEIK: Not met
- FBC-39 FSL (antibody, V domains shown) VH: EVQLVESGGGLVKPGGSLRLSCAASGFSFLNAWMSWVRQAPGKGLEWVGRIKSNTDGGTTDYAAPVKGRFTISRDDSKNTLYLQMSSLKTEDTAVYYCTTDGPYSDDFRSGYAARYRYFGMDVWGQGTTVTVSS VL: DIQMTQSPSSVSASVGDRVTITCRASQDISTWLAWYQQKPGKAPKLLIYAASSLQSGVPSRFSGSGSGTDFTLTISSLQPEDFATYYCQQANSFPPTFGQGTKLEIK: Met
- FBC-39 LSL (antibody, V domains shown) VH: EVQLVESGGGLVKPGGSLRLSCAASGLSFLNAWMSWVRQAPGKGLEWVGRIKSNTDGGTTDYAAPVKGRFTISRDDSKNTLYLQMSSLKTEDTAVYYCTTDGPYSDDFRSGYAARYRYFGMDVWGQGTTVTVSS VL: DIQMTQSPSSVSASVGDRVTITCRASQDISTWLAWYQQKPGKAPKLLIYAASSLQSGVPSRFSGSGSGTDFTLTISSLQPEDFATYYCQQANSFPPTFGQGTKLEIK: Not met
- FBC-39 LTS (antibody, V domains shown) VH: EVQLVESGGGLVKPGGSLRLSCAASGLTFSNAWMSWVRQAPGKGLEWVGRIKSNTDGGTTDYAAPVKGRFTISRDDSKNTLYLQMSSLKTEDTAVYYCTTDGPYSDDFRSGYAARYRYFGMDVWGQGTTVTVSS VL: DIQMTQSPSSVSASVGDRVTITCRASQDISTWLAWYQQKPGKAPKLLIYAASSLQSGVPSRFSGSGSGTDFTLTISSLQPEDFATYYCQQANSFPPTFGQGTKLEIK: Met

Read the next record carefully.
Query: Quick check: EC50 of FBC-39 LTL (antibody, V domains shown) VH: EVQLVESGGGLVKPGGSLRLSCAASGLTFLNAWMSWVRQAPGKGLEWVGRIKSNTDGGTTDYAAPVKGRFTISRDDSKNTLYLQMSSLKTEDTAVYYCTTDGPYSDDFRSGYAARYRYFGMDVWGQGTTVTVSS VL: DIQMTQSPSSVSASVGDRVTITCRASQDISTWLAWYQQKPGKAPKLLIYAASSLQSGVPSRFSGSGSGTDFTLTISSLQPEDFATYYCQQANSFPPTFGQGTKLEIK under 0.02 µg/mL?
Response: Met
